Tested System: Aurora kinase A (Homo sapiens)
Sequence (O14965 whole entry): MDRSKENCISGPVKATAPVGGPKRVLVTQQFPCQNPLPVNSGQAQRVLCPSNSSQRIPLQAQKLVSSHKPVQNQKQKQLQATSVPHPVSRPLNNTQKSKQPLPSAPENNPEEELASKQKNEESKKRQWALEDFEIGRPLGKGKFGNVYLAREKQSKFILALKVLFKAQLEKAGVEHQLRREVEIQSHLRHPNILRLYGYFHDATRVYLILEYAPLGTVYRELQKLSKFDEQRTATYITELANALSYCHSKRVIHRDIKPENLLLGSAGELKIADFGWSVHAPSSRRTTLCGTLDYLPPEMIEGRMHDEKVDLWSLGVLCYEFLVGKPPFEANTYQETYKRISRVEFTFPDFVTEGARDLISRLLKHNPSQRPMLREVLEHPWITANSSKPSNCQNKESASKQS
Quantity Kind: IC50 (µM)

Example entries and their recorded answers appear below.
[[record]]
smiles_record = "COc1ccc(Nc2nc(-c3ccn(C)n3)cn3ccnc23)cc1"
tested_system = "Aurora kinase A (Homo sapiens)"
quantity_kind = "IC50"
readout_value = 9.7

[[record]]
smiles_record = "COCC(=O)Nc1cccc(-c2cn3ccnc3c(Nc3ccc(OC)cc3)n2)c1"
tested_system = "Aurora kinase A (Homo sapiens)"
quantity_kind = "IC50"
readout_value = 7.31


(1) COc1ccc(NC(=O)Nc2cccc(-c3cn4ccnc4c(Nc4ccc(OC)cc4)n3)c2)cc1
(2) COc1ccc(Nc2nc(-c3cccc(NS(=O)(=O)c4cccnc4)c3)cn3ccnc23)cc1
Kindly compare 1 with 2 and tell me which has the lower IC50 figure. Refer to your chosen entry by its label in the reply.
2
(2: 4.5 µM, 1: 7.9 µM)

----------
Tested System: UniProt:O14965
Assay Details: Inhibition of human aurora A at 10 uM
Quantity Kind: inhibition (%)

Example entries and their recorded answers appear below.
[[record]]
molecule = "COc1ccc(Nc2nc(-c3ccc(Cl)nc3)cn3ccnc23)cc1"
readout_value = 28

[[record]]
molecule = "COc1ccc(Nc2nc(-c3cnn(Cc4ccccc4)c3)cn3ccnc23)cc1"
readout_value = 38

[[record]]
molecule = "COc1ccc(Nc2nc(-c3ccc(F)nc3)cn3ccnc23)cc1"
readout_value = 32

[[record]]
molecule = "c1cncc(-c2cn3ccnc3c(NCc3ccc4c(c3)OCCO4)n2)c1"
readout_value = 35

[[record]]
molecule = "COc1ccc(Nc2nc(-c3cccc(NC(=O)COc4ccccc4)c3)cn3ccnc23)cc1"
readout_value = 22


(P) CN(c1ccccc1)c1nc(-c2cccnc2)cn2ccnc12
(Q) c1cncc(-c2cn3ccnc3c(NCc3ccc(N4CCOCC4)cc3)n2)c1
Rank P against Q by their inhibition values and give the higher one. Refer to your chosen entry by its label in the reply.
Q
(Q: 41%, P: 27%)

----------
Tested System: Aurora kinase A (Homo sapiens) (UniProt O14965)
Sequence (O14965 whole entry): as above
Assay Details: Inhibition of human aurora A at 10 uM
Quantity Kind: inhibition (%)

[[record]]
molecule = "COc1ccc(Nc2nc(-c3cccc(Cl)c3)cn3ccnc23)cc1"
unit_annotation = "%"
readout_value = 46

[[record]]
molecule = "COc1ccc(Nc2nc(-c3ccc(OC)nc3)cn3ccnc23)cc1"
unit_annotation = "%"
readout_value = 30

[[record]]
molecule = "OC1CCC(Nc2nc(-c3cccnc3)cn3ccnc23)CC1 (centres undefined)"
unit_annotation = "%"
readout_value = 32

[[record]]
molecule = "c1cncc(-c2cn3ccnc3c(NCCN3CCOCC3)n2)c1"
unit_annotation = "%"
readout_value = 33

